studySystem: Muscarinic acetylcholine receptor M1 (Homo sapiens)
Sequence (P11229 whole entry): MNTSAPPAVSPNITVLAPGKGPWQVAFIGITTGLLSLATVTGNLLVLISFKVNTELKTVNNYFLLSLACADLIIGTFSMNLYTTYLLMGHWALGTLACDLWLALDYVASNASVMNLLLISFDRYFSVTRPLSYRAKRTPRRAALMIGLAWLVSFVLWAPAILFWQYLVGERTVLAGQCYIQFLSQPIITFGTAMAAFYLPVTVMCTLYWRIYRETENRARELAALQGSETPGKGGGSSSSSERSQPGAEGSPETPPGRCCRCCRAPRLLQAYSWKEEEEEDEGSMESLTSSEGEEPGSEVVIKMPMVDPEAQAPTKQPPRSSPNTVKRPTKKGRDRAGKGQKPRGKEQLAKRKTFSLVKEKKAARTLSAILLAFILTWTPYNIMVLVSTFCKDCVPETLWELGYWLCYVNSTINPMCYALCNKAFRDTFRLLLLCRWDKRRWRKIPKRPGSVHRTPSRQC
protocolText: Positive allosteric modulator activity at human muscarinic M1 receptor by calcium mobilization assay
pEC50: −log10 of the molar value.
quantityName: pEC50

Cn1cc(-c2ccc(CN3C(=O)CCc4ccccc43)c(F)c2)cn1 ... 5.25

[a] Cn1cc(-c2ccc(CN3C(=O)COc4ccccc43)c(F)c2)cn1
[b] Cn1cc(-c2ccc(CN3C(=O)Cc4ccccc43)c(F)c2)cn1
[c] Cn1cc(-c2ccc(CN3C(=O)C(N)c4ccccc43)c(F)c2)cn1 (racemic)
## Input Sort by pEC50, descending. Answer format: the labels, ordered as requested.
## Output c, b, a

Reference for the values: ChEMBL document CHEMBL2311253
